- Tgt: hERG (KCNH2) (Homo sapiens, UniProt Q12809)
- Sequence (Q12809 whole entry): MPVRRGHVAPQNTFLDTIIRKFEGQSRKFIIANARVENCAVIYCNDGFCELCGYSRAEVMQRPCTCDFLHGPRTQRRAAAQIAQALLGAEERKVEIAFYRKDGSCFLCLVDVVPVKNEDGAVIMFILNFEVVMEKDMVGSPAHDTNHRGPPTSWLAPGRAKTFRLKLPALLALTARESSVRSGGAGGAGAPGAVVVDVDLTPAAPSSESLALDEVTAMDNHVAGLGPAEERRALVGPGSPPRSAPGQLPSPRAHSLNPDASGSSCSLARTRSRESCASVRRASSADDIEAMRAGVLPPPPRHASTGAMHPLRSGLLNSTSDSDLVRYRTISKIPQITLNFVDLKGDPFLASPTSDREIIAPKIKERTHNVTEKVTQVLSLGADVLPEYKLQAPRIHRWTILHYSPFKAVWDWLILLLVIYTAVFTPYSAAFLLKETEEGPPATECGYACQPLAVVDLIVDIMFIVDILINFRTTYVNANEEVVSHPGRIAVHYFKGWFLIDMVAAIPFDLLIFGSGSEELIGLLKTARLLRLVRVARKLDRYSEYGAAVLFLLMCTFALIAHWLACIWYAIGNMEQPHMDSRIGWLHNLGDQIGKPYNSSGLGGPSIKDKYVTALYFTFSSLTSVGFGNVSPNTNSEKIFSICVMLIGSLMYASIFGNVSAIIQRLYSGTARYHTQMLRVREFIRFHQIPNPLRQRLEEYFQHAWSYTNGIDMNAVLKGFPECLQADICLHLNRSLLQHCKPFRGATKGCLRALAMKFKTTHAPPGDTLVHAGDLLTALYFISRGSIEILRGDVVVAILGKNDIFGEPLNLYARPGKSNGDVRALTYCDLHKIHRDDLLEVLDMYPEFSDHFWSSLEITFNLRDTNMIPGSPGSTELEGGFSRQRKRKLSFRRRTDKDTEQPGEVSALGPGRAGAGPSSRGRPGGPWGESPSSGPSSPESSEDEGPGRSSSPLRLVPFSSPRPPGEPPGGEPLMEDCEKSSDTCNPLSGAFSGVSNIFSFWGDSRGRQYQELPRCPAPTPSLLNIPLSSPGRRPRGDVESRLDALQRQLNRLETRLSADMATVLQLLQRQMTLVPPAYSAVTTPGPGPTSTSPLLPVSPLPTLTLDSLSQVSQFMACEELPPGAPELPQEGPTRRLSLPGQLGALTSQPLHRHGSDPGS
- Procedure summary: Inhibition of hERG channel
- Assay type: toxicity
- Details: human
pIC50: −log10 of the molar value.
Endpoint name: pIC50

{"Sample smiles": "O=C(Cc1ccc(-c2ccccc2)cc1)Nc1cc(C2CC2)[nH]n1", "Assay value": "< 4.52"}

# ---- query molecule ----
pIC50 for O=C(Cc1ccc(B2C=CC=CN2)cc1)Nc1cc(C2CC2)[nH]n1 is < 4.52

* * *

- Procedure summary: Solubility of compound at pH 6.8 by RapidFire mass spectrometry
- Assay type: physicochemical
- Details: buffer
Form field: solubility (one value per entry).

{"Sample smiles": "O=C(NCCS(=O)(=O)c1ccc(C(F)(F)F)cn1)c1ccc(B2C=CC=CN2)cc1", "solubility": "< 4 nM"}
{"Sample smiles": "COc1ccccc1N1CCN(CCCCNC(=O)c2ccc(B3C=CC=CN3)cc2)CC1", "solubility": "46 nM"}
{"Sample smiles": "O=C(NCCS(=O)(=O)c1ccc(C(F)(F)F)cn1)c1ccc(-c2ccccc2)cc1", "solubility": "< 4 nM"}

solubility for O=C(Cc1ccc(B2C=CC=CN2)cc1)Nc1cc(C2CC2)[nH]n1 is 13 nM

solubility for O=C(Cc1ccc(-c2ccccc2)cc1)Nc1cc(C2CC2)[nH]n1 is < 4 nM

solubility for COc1ccccc1N1CCN(CCCCNC(=O)c2ccc(-c3ccccc3)cc2)CC1 is < 5 nM

* * *

- Procedure summary: Lipophilicity, logD of the compound at pH 7.4
- Type: physicochemical
- Details: buffer
Endpoint name: logD
Reply: number alone, nothing else.

// below: answered compounds
{"Compound": "O=C(C1[C@@H]2CC[C@@]1(c1ccccc1)C2)N1CCCCC1 (some centres undefined)", "logD": 3.7}
{"Compound": "O=C(c1ccccc1-c1ccccc1)N1CCCCC1", "logD": 3.5}
{"Compound": "Oc1cc(O)cc(/C=C/C23CC(O)(C2)C3)c1", "logD": 1.9}

# ---- query compound ----
logD for Oc1ccc(/C=C/c2cc(O)cc(O)c2)cc1 is 2.9

* * *

- Tgt: CYP3A4 (Homo sapiens)
- Sequence (P08684 whole entry): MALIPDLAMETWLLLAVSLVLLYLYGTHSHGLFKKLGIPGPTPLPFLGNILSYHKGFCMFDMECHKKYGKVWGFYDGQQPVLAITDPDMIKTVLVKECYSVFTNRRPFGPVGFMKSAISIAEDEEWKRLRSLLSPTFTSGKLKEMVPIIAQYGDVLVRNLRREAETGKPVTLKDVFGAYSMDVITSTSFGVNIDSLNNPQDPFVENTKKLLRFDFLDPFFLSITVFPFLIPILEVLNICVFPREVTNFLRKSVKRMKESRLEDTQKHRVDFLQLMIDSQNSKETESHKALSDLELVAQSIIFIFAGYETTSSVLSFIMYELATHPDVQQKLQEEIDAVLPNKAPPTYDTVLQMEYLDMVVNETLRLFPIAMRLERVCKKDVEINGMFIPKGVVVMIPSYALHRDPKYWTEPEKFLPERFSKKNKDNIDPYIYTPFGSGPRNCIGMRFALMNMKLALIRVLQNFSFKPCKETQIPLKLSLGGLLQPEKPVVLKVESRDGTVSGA
- Procedure summary: Inhibition of CYP3A4 (unknown origin)
- Type: ADME
pIC50: −log10 of the molar value.
Form field: pIC50 (one value per entry).

{"Sample smiles": "O=C(NCCS(=O)(=O)c1ccc(C(F)(F)F)cn1)c1ccc(-c2ccccc2)cc1", "Tgt": "CYP3A4 (Homo sapiens)", "Assay value": "< 4.70"}

pIC50 for O=C(Cc1ccc(-c2ccccc2)cc1)Nc1cc(C2CC2)[nH]n1 is < 4.70

pIC50 for COc1ccccc1N1CCN(CCCCNC(=O)c2ccc(-c3ccccc3)cc2)CC1 is < 4.70

* * *

Notes on pIC50 obtained with Beta-1 adrenergic receptor (Rattus norvegicus).
Sequence (P18090 whole entry): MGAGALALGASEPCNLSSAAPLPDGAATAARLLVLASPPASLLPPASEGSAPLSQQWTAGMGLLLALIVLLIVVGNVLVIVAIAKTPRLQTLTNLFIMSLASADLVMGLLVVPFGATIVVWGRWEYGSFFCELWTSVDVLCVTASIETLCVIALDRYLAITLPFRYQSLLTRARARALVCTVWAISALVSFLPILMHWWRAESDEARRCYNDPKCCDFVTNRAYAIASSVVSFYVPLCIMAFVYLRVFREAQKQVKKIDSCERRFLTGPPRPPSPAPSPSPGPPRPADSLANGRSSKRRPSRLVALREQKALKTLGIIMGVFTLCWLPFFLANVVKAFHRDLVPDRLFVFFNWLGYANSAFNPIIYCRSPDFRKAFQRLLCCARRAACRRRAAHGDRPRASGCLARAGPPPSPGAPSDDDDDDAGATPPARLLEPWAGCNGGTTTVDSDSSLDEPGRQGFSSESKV
The read-out pIC50 is expressed as -log10 of concentration in moles per litre.

{"Compound": "CC(C)NCC(O)c1ccc(Cl)c(Cl)c1 (stereo not drawn)", "pIC50": 6.94}
{"Compound": "CC/C=N/OCC(O)CNC(C)(C)C (stereo not drawn)", "pIC50": 4.58}

# ---- query compound ----
pIC50 for CCO/N=C/C(O)CNC(C)(C)C (stereo not drawn) is 5.08

* * *

Form field: EC50 (one value per entry).
- Test system: Hepatitis C virus
- Procedure summary: microbe, parasite or virus in culture
- Details: GT1b-genotype

{"Sample smiles": "COC(=O)N[C@H](C(=O)N1CCC[C@H]1c1nc2cc(-c3csc4c(-c5ccc(-c6c[nH]c([C@@H]7CCCN7C(=O)[C@H](NC(=O)OC)c7ccccc7)n6)cc5)csc34)ccc2[nH]1)C(C)C", "Tgt": "Hepatitis C virus", "EC50": "0.002 nM"}
{"Sample smiles": "COC(=O)N[C@@H](C(=O)N1CCC[C@@H]1c1ncc(-c2ccc(-n3ccc4c(-c5cnc([C@H]6CCCN6C(=O)[C@H](NC(=O)OC)C(C)C)[nH]5)csc43)c(Cl)c2)[nH]1)C(C)C", "Tgt": "Hepatitis C virus", "EC50": "< 1 nM"}
{"Sample smiles": "COC(=O)N[C@@H](C(=O)N1CCC[C@@H]1c1ncc(-c2cc3sc(-c4cnc([C@H]5CCCN5C(=O)[C@H](NC(=O)OC)C(C)C)[nH]4)cc3s2)[nH]1)C(C)C", "Tgt": "Hepatitis C virus", "EC50": "< 1 nM"}
{"Sample smiles": "COC(=O)N[C@@H](C(=O)N1CCC[C@@H]1c1ncc(-c2cn3cc(-c4cnc([C@H]5CCCN5C(=O)[C@H](NC(=O)OC)C(C)C)[nH]4)sc3n2)[nH]1)C(C)C", "Tgt": "Hepatitis C virus", "EC50": "< 1 nM"}

EC50 for COC(=O)N[C@@H](C(=O)N1CCC[C@@H]1c1ncc(-c2ccc(-c3cc4oc(-c5cnc([C@H]6CCCN6C(=O)[C@H](NC(=O)OC)C(C)C)[nH]5)cc4s3)cc2)[nH]1)C(C)C is < 1 nM
